target: UniProtKB Q02750; test: Assay for inhibitors of the MAP kinase pathway (coupled GST-MEK/GST-MAPK/MBP 33P assay); conditions: GST-MEK activated by c-raf, MBP substrate, 8.33 μM ATP
Sequence (Q02750 whole entry): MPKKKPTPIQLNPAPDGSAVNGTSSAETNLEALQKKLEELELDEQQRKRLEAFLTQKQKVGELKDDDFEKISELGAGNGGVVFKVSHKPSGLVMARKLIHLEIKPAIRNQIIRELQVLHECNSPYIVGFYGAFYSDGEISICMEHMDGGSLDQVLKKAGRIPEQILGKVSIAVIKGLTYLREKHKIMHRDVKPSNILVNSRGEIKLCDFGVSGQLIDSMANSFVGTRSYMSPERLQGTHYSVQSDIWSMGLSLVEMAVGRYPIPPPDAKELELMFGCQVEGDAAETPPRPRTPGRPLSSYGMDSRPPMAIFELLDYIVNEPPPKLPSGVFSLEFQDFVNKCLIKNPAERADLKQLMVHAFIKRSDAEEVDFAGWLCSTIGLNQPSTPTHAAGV
measure: pIC50
Answers are plain numbers, as −log10 of the molar value.

Query: Which pIC50 is reported for this compound? COc1cc2ncc(Cl)c(Nc3ccc(Cl)c(Cl)c3)c2cc1OC [Compound 5]
Reply: 5.82
